Tested on: right atrium
method-summary: Positive inotropic effect in guinea pig (isolated right atrium)
recorded-conditions: percentage change, 2 Hz, 37° C., concentration not given
parameter: Concentration force dP/dt

Reference set, count: 5
compound	target-desc	Concentration force dP/dt
CSc1nc2nc3c(c(NCCN4CCOCC4)n2n1)CCN(Cc1ccccc1)C3 [Example 46]	right atrium	80%
CSc1nc2nc3c(c(NCCN4CCOCC4)n2n1)SCCC3 [Example 39]	right atrium	51%
CSc1nc2nc3c(c(NCCN4CCOCC4)n2n1)CCCCCCCCCC3 [Example 35]	right atrium	79%
CSc1nc2nc3c(c(N4CCOCC4)n2n1)CCC3 [Example 8]	right atrium	86%
CSc1nc2nc3c(c(NCCCN4CCOCC4)n2n1)CCCC3 [Example 19]	right atrium	171%

Enquiry: Determine from records and report Concentration force dP/dt for Nc1cc(-c2ccncc2)c[nH]c1=O [Amrinone, reference compound]
Return: 33%
